subject-of-test: human cytoplasmic domain of IGF-1R (Homo sapiens)
Construct: The human cytoplasmic domain of IGF-1R was cloned by fusion with glutathione S-transferase (GST); made in house; host or cells: SF21 insect cells (baculovirus, pFastBac-GST)
measurement-protocol: Kinase IGF-1R test: inhibition of autophosphorylation of the enzyme (HTRF)
Assay type: biochemical
study-conditions: preincubation 90 minutes with 5 nM enzyme, ATP 120 μM; read-out: Test A 90′ IC50
Reported values of IC50 for individual entries
measured-property: IC50

INSERT INTO assay_data (smiles_string, subject_of_test, measured_property, test_value) VALUES
  ('CC1(C)C(=O)N(c2ccc(S(=O)(=O)C(F)(F)F)cc2)C(=O)N1Cc1ccnc(Nc2cncnc2)n1', 'human cytoplasmic domain of IGF-1R (Homo sapiens)', 'IC50', '10 to 100 nM'),
  ('CNC(=O)Nc1cc(CN2C(=O)N(c3ccc(S(=O)(=O)C(F)(F)F)cc3)C(=O)C2(C)C)ccn1', 'human cytoplasmic domain of IGF-1R (Homo sapiens)', 'IC50', '10 to 100 nM'),
  ('CCCCN(C)C(=O)Nc1cc(CN2C(=O)N(c3ccc(SC(F)(F)F)cc3)C(=O)C2(C)C)ccn1', 'human cytoplasmic domain of IGF-1R (Homo sapiens)', 'IC50', '10 to 100 nM'),
  ('CC1(C)C(=O)N(c2ccc(SC(F)(F)F)cc2)C(=O)N1Cc1ccnc(NC(=O)NC2CCCC2)c1', 'human cytoplasmic domain of IGF-1R (Homo sapiens)', 'IC50', '10 to 100 nM'),
  ('CC1(C)C(=O)N(c2ccc(SC(F)(F)F)cc2)C(=O)N1Cc1ccnc(NC(=O)NCCN2CCCCC2)c1', 'human cytoplasmic domain of IGF-1R (Homo sapiens)', 'IC50', '10 to 100 nM'),
  ('CC1(C)C(=O)N(c2ccc(SC(F)(F)F)cc2)C(=O)N1Cc1ccnc(NC(=O)NC2CC2)c1', 'human cytoplasmic domain of IGF-1R (Homo sapiens)', 'IC50', '10 to 100 nM'),
  ('CC1(C)C(=O)N(c2ccc(SC(F)(F)F)cc2)C(=O)N1Cc1ccnc(NC(=O)NC2CCC2)c1', 'human cytoplasmic domain of IGF-1R (Homo sapiens)', 'IC50', '10 to 100 nM');

----------
subject-of-test: human cytoplasmic domain of IGF-1R (Homo sapiens, UniProt P08069)
Construct: The human cytoplasmic domain of IGF-1R was cloned by fusion with glutathione S-transferase (GST); made in house; host or cells: SF21 insect cells (baculovirus, pFastBac-GST)
Sequence (P08069 960-1367 limits assumed): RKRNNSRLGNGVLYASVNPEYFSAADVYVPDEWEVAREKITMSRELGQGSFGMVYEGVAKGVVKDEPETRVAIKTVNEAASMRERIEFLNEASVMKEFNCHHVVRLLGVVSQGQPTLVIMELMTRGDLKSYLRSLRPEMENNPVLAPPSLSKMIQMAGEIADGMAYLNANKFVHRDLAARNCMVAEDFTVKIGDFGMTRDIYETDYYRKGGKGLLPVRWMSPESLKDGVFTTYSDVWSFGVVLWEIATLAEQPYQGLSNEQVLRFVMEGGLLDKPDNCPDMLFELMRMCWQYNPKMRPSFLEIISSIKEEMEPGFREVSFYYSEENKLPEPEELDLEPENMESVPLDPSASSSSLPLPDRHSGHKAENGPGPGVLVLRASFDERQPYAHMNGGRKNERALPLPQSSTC
measurement-protocol: Kinase IGF-1R test: inhibition of autophosphorylation of the enzyme (HTRF)
Assay type: biochemical
study-conditions: preincubation 90 minutes with 5 nM enzyme, ATP 120 μM; read-out: Test A 90′ IC50
measured-property: IC50

INSERT INTO assay_data (compound, subject_of_test, measured_property, test_value) VALUES
  ('CC1(C)C(=O)N(c2ccc(SC(F)(F)F)cc2)C(=O)N1Cc1ccnc(NC(=O)NCCCN2CCCC2)c1', 'human cytoplasmic domain of IGF-1R (Homo sapiens, UniProt P08069)', 'IC50', '10 to 100 nM'),
  ('CC1(C)C(=O)N(c2ccc(SC(F)(F)F)cc2)C(=O)N1Cc1ccnc(NC(=O)NCCN2CCCC2)c1', 'human cytoplasmic domain of IGF-1R (Homo sapiens, UniProt P08069)', 'IC50', '> 100 nM'),
  ('CC1(C)C(=O)N(c2ccc(SC(F)(F)F)cc2)C(=O)N1Cc1ccnc(NC(=O)NC2CC(CO)C2)c1 (mixture of isomers) [Example 40B Stage a)]', 'human cytoplasmic domain of IGF-1R (Homo sapiens, UniProt P08069)', 'IC50', '< 10 nM'),
  ('CC1(C)C(=O)N(c2ccc(SC(F)(F)F)cc2)C(=O)N1Cc1ccnc(NC(=O)NCCCCN2CCCC2)c1', 'human cytoplasmic domain of IGF-1R (Homo sapiens, UniProt P08069)', 'IC50', '10 to 100 nM'),
  ('CCCN(C)C(=O)Nc1cc(CN2C(=O)N(c3ccc(SC(F)(F)F)cc3)C(=O)C2(C)C)ccn1', 'human cytoplasmic domain of IGF-1R (Homo sapiens, UniProt P08069)', 'IC50', '10 to 100 nM'),
  ('CC1(C)C(=O)N(c2ccc(SC(F)(F)F)cc2)C(=O)N1Cc1ccnc(Nc2cccc(F)c2)c1 [Example 40C]', 'human cytoplasmic domain of IGF-1R (Homo sapiens, UniProt P08069)', 'IC50', '10 to 100 nM'),
  ('CC1(C)C(=O)N(c2ccc(SC(F)(F)F)cc2)C(=O)N1Cc1ccnc(Nc2cccnc2Cl)c1 [Example 40E]', 'human cytoplasmic domain of IGF-1R (Homo sapiens, UniProt P08069)', 'IC50', '10 to 100 nM');

----------
System: MEF-IGF1R cells
measurement-protocol: Proliferation/viability of MEF-IGF1R (Thymidine [14C] incorporation)
Format: cell-based
study-conditions: rhIGF1 100 ng/mL, incubation 72 hours, read-out: Test C IC50
pIC50: −log10 of the molar value.
measured-property: pIC50

INSERT INTO measurements (compound, subject_of_test, measured_property, test_value) VALUES
  ('CC1(C)C(=O)N(c2ccc(SC(F)(F)F)cc2)C(=O)N1Cc1ccnc(NC(=O)NCCCCN2CCCC2)c1', 'MEF-IGF1R cells', 'pIC50', '< 7.00'),
  ('CNC(=O)Nc1cc(CN2C(=O)N(c3ccc(S(=O)(=O)C(F)(F)F)cc3)C(=O)C2(C)C)ccn1', 'MEF-IGF1R cells', 'pIC50', '7.00 to 8.00'),
  ('CC1(C)C(=O)N(c2ccc(SC(F)(F)F)cc2)C(=O)N1Cc1ccnc(NC(=O)N2CCC2)c1', 'MEF-IGF1R cells', 'pIC50', '> 8.00'),
  ('CC1(C)C(=O)N(c2ccc(SC(F)(F)F)cc2)C(=O)N1Cc1ccnc(NC(=O)N2CCCCC2)c1', 'MEF-IGF1R cells', 'pIC50', '7.00 to 8.00'),
  ('C[C@H](CO)Nc1nccc(CN2C(=O)N(c3ccc(S(=O)(=O)C(F)(F)F)cc3)C(=O)C2(C)C)n1', 'MEF-IGF1R cells', 'pIC50', '7.00 to 8.00'),
  ('CC1(C)C(=O)N(c2ccc(SC(F)(F)F)cc2)C(=O)N1Cc1ccnc(Nc2cncnc2)n1', 'MEF-IGF1R cells', 'pIC50', '< 7.00'),
  ('CC1(C)C(=O)N(c2ccc(SC(F)(F)F)cc2)C(=O)N1Cc1ccnc(Nc2cccnc2Cl)c1 [Example 40E]', 'MEF-IGF1R cells', 'pIC50', '7.00 to 8.00'),
  ('CN(C)C(=O)c1cccc(Nc2cc(CN3C(=O)N(c4ccc(SC(F)(F)F)cc4)C(=O)C3(C)C)ccn2)c1', 'MEF-IGF1R cells', 'pIC50', '7.00 to 8.00'),
  ('CC1(C)C(=O)N(c2ccc(SC(F)(F)F)cc2)C(=O)N1Cc1ccnc(Nc2ccc(O)nc2)c1 [Example 40G]', 'MEF-IGF1R cells', 'pIC50', '< 7.00'),
  ('CN(C)C(=O)Nc1nccc(CN2C(=O)N(c3ccc(S(=O)(=O)C(F)(F)F)cc3)C(=O)C2(C)C)n1', 'MEF-IGF1R cells', 'pIC50', '< 7.00'),
  ('CC1(C)C(=O)N(c2ccc(SC(F)(F)F)cc2)C(=O)N1Cc1ccnc(Nc2cncnc2)c1', 'MEF-IGF1R cells', 'pIC50', '< 7.00'),
  ('CCOC(=O)Nc1cc(CN2C(=O)N(c3ccc(SC(F)(F)F)cc3)C(=O)C2(C)C)ccn1', 'MEF-IGF1R cells', 'pIC50', '7.00 to 8.00'),
  ('CC1(C)C(=O)N(c2ccc(SC(F)(F)F)cc2)C(=O)N1Cc1ccnc(Nc2cccnc2)n1', 'MEF-IGF1R cells', 'pIC50', '> 8.00'),
  ('Cc1ccc(F)c(C(=O)Nc2cc(CN3C(=O)N(c4ccc(SC(F)(F)F)cc4)C(=O)C3(C)C)ccn2)c1Cl', 'MEF-IGF1R cells', 'pIC50', '7.00 to 8.00'),
  ('CCCCNC(=O)Nc1cc(CN2C(=O)N(c3ccc(SC(F)(F)F)cc3)C(=O)C2(C)C)ccn1', 'MEF-IGF1R cells', 'pIC50', '7.00 to 8.00');

----------
Below, each entry is listed with its recorded IC50.
Test system: MEF-IGF1R cells
measurement-protocol: Proliferation/viability of MEF-IGF1R (Thymidine [14C] incorporation)
Format: cell-based
study-conditions: rhIGF1 100 ng/mL, incubation 72 hours, read-out: Test C IC50
measured-property: IC50

INSERT INTO measurements (compound, measured_property, test_value) VALUES
  ('CC1(C)C(=O)N(c2ccc(SC(F)(F)F)cc2)C(=O)N1Cc1ccnc(NC(N)=O)c1 [Example 40A]', 'IC50', '0.01 to 0.1 µM'),
  ('CC1(C)C(=O)N(c2ccc(SC(F)(F)F)cc2)C(=O)N1Cc1ccnc(Nc2cccc(F)c2)c1 [Example 40C]', 'IC50', '0.01 to 0.1 µM'),
  ('CC1(C)C(=O)N(c2ccc(SC(F)(F)F)cc2)C(=O)N1Cc1ccnc(NC(=O)NC2CCCC2)c1 [Example 19]', 'IC50', '0.01 to 0.1 µM'),
  ('COC(=O)Nc1cc(CN2C(=O)N(c3ccc(SC(F)(F)F)cc3)C(=O)C2(C)C)ccn1 [Example 40L]', 'IC50', '> 0.1 µM'),
  ('CC1(C)C(=O)N(c2ccc(SC(F)(F)F)cc2)C(=O)N1Cc1ccnc(NC(=O)NCCN2CCCCC2)c1 [Example 31]', 'IC50', '> 0.1 µM'),
  ('CC1(C)C(=O)N(c2ccc(SC(F)(F)F)cc2)C(=O)N1Cc1ccnc(NC(=O)c2ccc(Cl)c(Cl)c2)c1 [Example 3]', 'IC50', '0.01 to 0.1 µM'),
  ('CC1(C)C(=O)N(c2ccc(SC(F)(F)F)cc2)C(=O)N1Cc1ccnc(NC(=O)c2cc(Cl)cc(Cl)c2)c1 [Example 6]', 'IC50', '< 0.01 µM');
